- Test system: DU-145 prostate
- Experiment: NCI tumour cell line growth inhibition, 48 h; in the data active = GI50 below about 0.43 µM; inactive = the rest
Respond only with the outcome that fits, drawn from active, inactive

Example cases with answers are listed next.
* COc1cccc(-c2nn(-c3ccccc3)cc2-c2ccnc(NCCNC(=O)Nc3cccc(C(F)(F)F)c3)c2)c1 | inactive
* Cc1ccc(/C=C2\CN(C(=O)C(Cl)Cl)C/C(=C\c3ccc(C)cc3)C2=O)cc1 | active
* O=[N+]([O-])c1ccc(Oc2nc(Nc3ccc(O[C@H]4CO[C@H]5[C@@H]4OC[C@@H]5O)c(Cl)c3)ncc2F)c(Cl)c1 | inactive
* O=C(CN1CCN(c2cc3c(cc2F)c(=O)c(C(=O)O)cn3C2CC2)CC1)Nc1nc(-c2ccc(Cl)cc2)cs1 | inactive
* C=C1C(=O)O[C@H]2[C@H]1CC/C(COC(=O)CCSCCC(=O)OC/C1=C/CC[C@@]3(C)O[C@H]3[C@H]3OC(=O)C(=C)[C@@H]3CC1)=C\CC[C@@]1(C)O[C@@H]21 | inactive

Request: Please state the recorded outcome for this compound: N[C@@H]1C(=O)N2C(C(=O)OC(c3ccccc3)c3ccccc3)=C(CCl)CS[C@H]12
Response: inactive

Request: Please state the recorded outcome for this compound: CCOc1cc(Br)c(C(C)NC(=O)c2cccc(OC)c2)cc1OCC (stereo not drawn)
Response: inactive

Request: Please state the recorded outcome for this compound: Cc1cc(Nc2nc(-c3cccnc3)nc3ccccc23)n[nH]1
Response: inactive

* * *

- Test system: TK-10 renal
- Experiment: NCI tumour cell line growth inhibition, 48 h
Assay endpoint: TGI (µM)
Numbers only, in µM.

• CC(=O)OC(Cc1ccc2ccccc2n1)(C(F)(F)F)C(F)(F)F = 2.55

Hi, could you look up TGI for each item in my list?
1. COc1cc2c(cc1OC)C(Sc1ccc(SC)cc1)c1c(nc(N)c(C#N)c1N)O2 (centres undefined)
2. Cc1ccc(-c2c3c(nn2-c2ccc(S(N)(=O)=O)cc2)-c2ccccc2C3)cc1
3. Cn1nc(-c2ccc(Cl)cc2)nc2c(=O)n(C)c(=O)nc1-2

Response:
2.95
38.1
24.8

* * *

- Test system: COLO 205 colon
- Experiment: NCI tumour cell line growth inhibition, 48 h
Would you kindly list GI50 for each of these compounds?

Answered cases to consult:
- Cc1ccc(-c2c3c(nn2-c2ccc(S(N)(=O)=O)cc2)-c2ccccc2C3)cc1: 23 µM
- Cc1ccc(C(NC(=O)c2ccccc2)c2ccc3cccnc3c2O)cc1 (stereo unspecified): 0.44 µM
- CC1=CC(=O)C(C(C)C)=CC1=Nc1cc(Br)c(O)c(Br)c1: 19.2 µM
- Cn1nc(-c2ccc(Cl)cc2)nc2c(=O)n(C)c(=O)nc1-2: 0.491 µM
- O=C(O)c1cn(C2CC2)c2cc(N3CCN(C(=O)Nc4nc(-c5ccccc5)cs4)CC3)c(F)cc2c1=O: 2.84 µM

Request: So what does the record say about GI50 for Cc1cc(S(=O)(=O)/N=C/N(C)C)c(SC(=O)c2ccc(Cl)cc2)cc1Cl ?
Response: 55.9 µM

* * *

- Test system: A549 NSCLC
- Experiment: NCI tumour cell line growth inhibition, 48 h
Would you kindly list TGI for each of these compounds?

Hi, could you look up TGI for each item in my list?
1. CC(=O)N1N=C(c2ccc(Nc3ccnc4cc(Cl)ccc34)cc2)CC1c1ccc(Cl)cc1 (stereo not given)
2. COc1ccc(NC(=O)CC(=O)n2nc(C)c(N=Nc3cccc(C)c3)c2C)cc1
3. O=C1Nc2ccccc2Cn2c1cc1oc(-c3ccccc3)cc12
4. CCO[C@@]1(COCc2ccccc2)OC(=O)C[C@@H]1N1C(=O)OC[C@@H]1c1ccccc1
5. COc1ccc2c(c1)CC[C@@H]1[C@@H]2CC[C@]2(C)[C@@H](NC(=O)/C=C/c3ccc(O)c(O)c3)CC[C@@H]12

Response:
> 100 µM
> 100 µM
> 100 µM
> 100 µM
17.6 µM
